The binders listed here are annotated with their Fold Difference (Control IC50), against palivizumab.
Biological target: RSV (Long strain) F protein on infectious virus (respiratory syncytial virus (Long strain)) (UniProt P12568)
Sequence (P12568 26-574): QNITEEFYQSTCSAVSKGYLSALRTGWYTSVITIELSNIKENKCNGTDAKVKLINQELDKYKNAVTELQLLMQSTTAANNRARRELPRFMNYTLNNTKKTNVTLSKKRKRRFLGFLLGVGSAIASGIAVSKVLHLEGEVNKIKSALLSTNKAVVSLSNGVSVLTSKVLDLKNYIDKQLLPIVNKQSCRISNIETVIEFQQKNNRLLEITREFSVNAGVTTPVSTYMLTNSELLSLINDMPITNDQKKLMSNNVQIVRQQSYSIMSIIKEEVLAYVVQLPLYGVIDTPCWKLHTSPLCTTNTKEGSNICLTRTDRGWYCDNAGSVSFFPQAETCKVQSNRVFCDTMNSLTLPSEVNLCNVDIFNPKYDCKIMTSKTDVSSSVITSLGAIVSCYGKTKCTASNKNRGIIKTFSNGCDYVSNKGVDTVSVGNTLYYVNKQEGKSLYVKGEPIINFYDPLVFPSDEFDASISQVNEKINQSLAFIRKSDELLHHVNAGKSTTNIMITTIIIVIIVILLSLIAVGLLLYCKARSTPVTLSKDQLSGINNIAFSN
Assay: cell-based or functional assay
observation type: Fold Difference (Control IC50), against palivizumab (fold)

binder	value measured
P12f2 monoclonal antibody (antibody, V domains shown) VH: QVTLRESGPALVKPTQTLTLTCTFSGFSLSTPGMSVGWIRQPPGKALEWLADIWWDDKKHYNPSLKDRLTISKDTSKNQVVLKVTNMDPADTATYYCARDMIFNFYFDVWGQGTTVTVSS VL: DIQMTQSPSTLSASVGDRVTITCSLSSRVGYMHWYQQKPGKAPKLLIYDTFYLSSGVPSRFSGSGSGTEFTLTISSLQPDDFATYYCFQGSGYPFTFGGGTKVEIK	24
A17d4(1) Fab fragment (Fab, V domains shown) VH: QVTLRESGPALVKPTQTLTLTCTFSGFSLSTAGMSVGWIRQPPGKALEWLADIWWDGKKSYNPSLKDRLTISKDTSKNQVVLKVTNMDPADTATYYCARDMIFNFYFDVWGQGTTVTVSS VL: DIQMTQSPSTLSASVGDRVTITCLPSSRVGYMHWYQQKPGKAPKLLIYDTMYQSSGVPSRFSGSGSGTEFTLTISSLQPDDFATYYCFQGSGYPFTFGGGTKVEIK	31
A1h5 Fab fragment (Fab, V domains shown) VH: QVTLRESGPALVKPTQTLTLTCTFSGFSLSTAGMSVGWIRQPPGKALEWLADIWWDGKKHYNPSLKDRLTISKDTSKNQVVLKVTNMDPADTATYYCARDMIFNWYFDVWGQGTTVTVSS VL: DIQMTQSPSTLSASVGDRVTITCSLSSSVGYMHWYQQKPGKAPKLLIYDTFFHRSGVPSRFSGSGSGTEFTLTISSLQPDDFATYYCFQGSGYPFTFGGGTKVEIK	3
A12a6 Fab fragment (Fab, V domains shown) VH: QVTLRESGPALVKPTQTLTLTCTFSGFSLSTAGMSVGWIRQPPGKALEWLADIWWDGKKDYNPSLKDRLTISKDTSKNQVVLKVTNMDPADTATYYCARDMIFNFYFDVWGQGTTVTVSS VL: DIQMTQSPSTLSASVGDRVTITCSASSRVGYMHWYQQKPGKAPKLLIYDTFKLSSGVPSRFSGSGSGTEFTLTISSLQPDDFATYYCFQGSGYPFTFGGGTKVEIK	17
P12f4 monoclonal antibody (antibody, V domains shown) VH: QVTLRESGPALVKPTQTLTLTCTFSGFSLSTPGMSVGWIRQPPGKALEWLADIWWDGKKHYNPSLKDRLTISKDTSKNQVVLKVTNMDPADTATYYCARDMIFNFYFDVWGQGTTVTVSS VL: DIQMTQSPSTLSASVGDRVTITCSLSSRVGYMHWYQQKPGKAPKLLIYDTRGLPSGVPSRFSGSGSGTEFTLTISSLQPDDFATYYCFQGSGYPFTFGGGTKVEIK	23
A13a11 Fab fragment (Fab, V domains shown) VH: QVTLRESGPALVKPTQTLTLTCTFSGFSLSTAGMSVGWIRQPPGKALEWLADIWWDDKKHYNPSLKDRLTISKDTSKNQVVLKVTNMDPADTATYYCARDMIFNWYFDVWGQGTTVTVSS VL: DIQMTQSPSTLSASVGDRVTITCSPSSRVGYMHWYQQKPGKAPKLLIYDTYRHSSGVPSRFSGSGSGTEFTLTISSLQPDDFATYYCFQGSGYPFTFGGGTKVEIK	5
A13c4 Fab fragment (Fab, V domains shown) VH: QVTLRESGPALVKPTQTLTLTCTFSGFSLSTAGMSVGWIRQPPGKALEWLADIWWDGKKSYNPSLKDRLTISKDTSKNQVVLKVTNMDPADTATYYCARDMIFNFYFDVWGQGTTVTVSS VL: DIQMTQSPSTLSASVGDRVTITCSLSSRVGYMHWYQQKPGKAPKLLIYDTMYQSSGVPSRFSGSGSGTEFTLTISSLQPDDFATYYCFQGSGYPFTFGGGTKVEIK	21
A4B4 Fab fragment (Fab, V domains shown) VH: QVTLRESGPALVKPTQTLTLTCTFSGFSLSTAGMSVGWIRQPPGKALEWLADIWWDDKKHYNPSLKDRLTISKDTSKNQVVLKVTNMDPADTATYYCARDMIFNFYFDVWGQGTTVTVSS VL: DIQMTQSPSTLSASVGDRVTITCSASSRVGYMHWYQQKPGKAPKLLIYDTFFLDSGVPSRFSGSGSGTEFTLTISSLQPDDFATYYCFQGSGYPFTFGGGTKVEIK	13
A13c4 monoclonal antibody (antibody, V domains shown) VH: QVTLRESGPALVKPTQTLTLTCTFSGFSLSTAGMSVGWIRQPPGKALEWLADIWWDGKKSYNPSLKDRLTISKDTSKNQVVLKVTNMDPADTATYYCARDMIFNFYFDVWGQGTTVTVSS VL: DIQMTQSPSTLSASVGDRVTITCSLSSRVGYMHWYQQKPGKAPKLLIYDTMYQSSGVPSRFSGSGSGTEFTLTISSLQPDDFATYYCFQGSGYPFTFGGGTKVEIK	14
A1e9 Fab fragment (Fab, V domains shown) VH: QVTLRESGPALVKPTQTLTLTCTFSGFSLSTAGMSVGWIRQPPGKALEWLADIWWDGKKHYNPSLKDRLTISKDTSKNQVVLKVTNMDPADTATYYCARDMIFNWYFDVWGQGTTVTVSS VL: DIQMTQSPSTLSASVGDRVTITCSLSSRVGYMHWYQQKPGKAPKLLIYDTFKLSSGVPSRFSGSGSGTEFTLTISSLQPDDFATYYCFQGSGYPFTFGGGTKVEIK	4
